Experiment description: In vivo pharmacokinetics, plasma exposure after single oral dose
Particulars: mouse, CD1 mice, single oral gavage 10 mg/kg, read-out: Apparent half-life (converted)
Parameter measured: half-life (min)
Unit min implied. Number only.

Q. Give the measured half-life for Cc1ccc(S(=O)(=O)N[C@@]2(C)C=C3C(=O)O[C@@H]4CC[C@H](C2)[C@]34O)cc1 [Example 1]
A. 120

###

Tested on: STAT3 signaling
Experiment description: STAT3 Luciferase reporter gene assay
Type: cell-based
Particulars: Homo sapiens; STAT3 reporter/HEK293 cell line, 1 h pretreatment, IL-6 induced for 16 h, luciferase activity; read-out: IC50
The entries below come with measured IC50 values attached.
API: value field is a number in nM; no unit string.

Q. State IC50 on STAT3 signaling. Entry: C[C@@H]1C=C2C(=O)O[C@@H]3CC[C@H](C1)[C@]23O [Galiellalactone, (−)-Galiellalactone]
A. 7500

Q. Report IC50 under test system STAT3 signaling for C[C@]1(NS(=O)(=O)c2ccccc2)C=C2C(=O)O[C@@H]3CCC(C1)[C@]23O (stereo partly drawn) [Example 2] .
A. 3000

Q. Retrieve IC50 on STAT3 signaling; query C[C@]1(NS(=O)(=O)c2ccc(Cl)cc2)C=C2C(=O)O[C@@H]3CCC(C1)[C@]23O (stereo partly drawn) [Example 18]
A. 2260

###

Experiment description: In vivo pharmacokinetics, plasma exposure after single oral dose
Particulars: mouse, CD1 mice, single oral gavage 10 mg/kg, read-out: Tmax
Method: Pharmacokinetic (PK) studies were performed in CD1 mice to establish plasma exposure following administration of single oral doses of galiellalactone (GL) and example 1. Sample analysis was by LC-MS/MS. Dose solutions were prepared at a drug concentration of 0.5 mg/mL in 5% DMSO in 50 mM citrate buffer (citric acid/sodium citrate pH 4.0) and administered as a 20 mL/kg oral gavage (10 mg/kg).
Parameter measured: Tmax (min)
Could you give me the number in min? Just the number is fine.

Q. Identify Tmax associated with the compound Cc1ccc(S(=O)(=O)N[C@@]2(C)C=C3C(=O)O[C@@H]4CC[C@H](C2)[C@]34O)cc1 [Example 1]
A. 15

###

Experiment description: Chemical stability in phosphate buffer solution (PBS)
Assay type: physicochemical
Particulars: 37° C., 1 μM test concentration
Parameter measured: half-life at 1 μM (h)
Output spec: scalar in h, unitless text.

Q. Please report the measured half-life at 1 μM for C[C@]1(NS(=O)(=O)c2ccc(C(F)(F)F)cn2)C=C2C(=O)O[C@@H]3CCC(C1)[C@]23O (some centres unmarked)
A. 5.82

###

Experiment description: In vivo pharmacokinetics, plasma exposure after single oral dose
Particulars: mouse, CD1 mice, single oral gavage 10 mg/kg
Description: Pharmacokinetic (PK) studies were performed in CD1 mice to establish plasma exposure following administration of single oral doses of galiellalactone (GL) and example 1. Sample analysis was by LC-MS/MS. Dose solutions were prepared at a drug concentration of 0.5 mg/mL in 5% DMSO in 50 mM citrate buffer (citric acid/sodium citrate pH 4.0) and administered as a 20 mL/kg oral gavage (10 mg/kg).
Parameter measured: AUC(0-inf) (ng·h/mL)
Output spec: scalar in ng·h/mL, unitless text.

Q. Given Cc1ccc(S(=O)(=O)N[C@@]2(C)C=C3C(=O)O[C@@H]4CC[C@H](C2)[C@]34O)cc1 [Example 1] , respond with its AUC(0-inf).
A. 157

###

System: STAT3 signaling
Experiment description: STAT3 Luciferase reporter gene assay
Type: cell-based
Particulars: Homo sapiens; STAT3 reporter/HEK293 cell line, 1 h pretreatment, IL-6 induced for 16 h, luciferase activity; read-out: IC50
Parameter measured: IC50 (µM)
I only need the number, in µM, no unit after it.

Examples from the recorded data:
C[C@]1(NS(=O)(=O)c2ccccc2F)C=C2C(=O)O[C@@H]3CCC(C1)[C@]23O (stereo partly shown) | 4.69
Cc1ccc(S(=O)(=O)N[C@@]2(C)C=C3C(=O)O[C@@H]4CC[C@H](C2)[C@]34O)cc1 | 1.1
C[C@]1(NS(=O)(=O)c2ccc(C3=NCCO3)cc2)C=C2C(=O)O[C@@H]3CCC(C1)[C@]23O (stereo partly shown) | 0.24

Q. State, for STAT3 signaling, measured IC50 of the compound listed here: Cc1ccc(CS(=O)(=O)N[C@@]2(C)C=C3C(=O)O[C@@H]4CCC(C2)[C@]34O)cc1 (stereo partly shown)
A. 9.69

###

Tested on: STAT3 signaling
Experiment description: STAT3 Luciferase reporter gene assay
Assay type: cell-based
Particulars: Homo sapiens; STAT3 reporter/HEK293 cell line, 1 h pretreatment, IL-6 induced for 16 h, luciferase activity; read-out: IC50
Parameter measured: pIC50
# log scale: pIC50 equals minus log10 of the concentration in mol/L

In the examples that follow, each entry is paired with its recorded pIC50.
C[C@]1(NS(=O)(=O)c2ccc(CO)cc2)C=C2C(=O)O[C@@H]3CC[C@H](C1)[C@]23O [Example 22] | 4.94
COc1ccc(S(=O)(=O)N[C@@]2(C)C=C3C(=O)O[C@@H]4CCC(C2)[C@]34O)cc1 (stereo partly shown) [Example 3] | 5.08
Cc1cccc(S(=O)(=O)N[C@@]2(C)C=C3C(=O)O[C@@H]4CCC(C2)[C@]34O)c1 (stereo partly shown) [Example 6] | 5.17
C[C@]1(NS(=O)(=O)c2ccc([N+](=O)[O-])cc2)C=C2C(=O)O[C@@H]3CCC(C1)[C@]23O (stereo partly shown) [Example 8] | 5.30
C[C@]1(NS(=O)(=O)c2ccc(F)cc2)C=C2C(=O)O[C@@H]3CCC(C1)[C@]23O (stereo partly shown) [Example 17] | 5.50
C[C@]1(NS(=O)(=O)c2ccccc2[N+](=O)[O-])C=C2C(=O)O[C@@H]3CCC(C1)[C@]23O (stereo partly shown) [Example 4] | 5.17

Next up:
Q. Give pIC50 for this entry on STAT3 signaling: C[C@]1(NS(=O)(=O)c2ccc(C(F)(F)F)cn2)C=C2C(=O)N(Cc3ccc(C#N)cc3)[C@@H]3CC[C@H](C1)[C@]23O [Example 27]
A. 5.06
